molecular target: human D3 receptor (Homo sapiens); assay: cell-based
Sequence (P35462 whole entry): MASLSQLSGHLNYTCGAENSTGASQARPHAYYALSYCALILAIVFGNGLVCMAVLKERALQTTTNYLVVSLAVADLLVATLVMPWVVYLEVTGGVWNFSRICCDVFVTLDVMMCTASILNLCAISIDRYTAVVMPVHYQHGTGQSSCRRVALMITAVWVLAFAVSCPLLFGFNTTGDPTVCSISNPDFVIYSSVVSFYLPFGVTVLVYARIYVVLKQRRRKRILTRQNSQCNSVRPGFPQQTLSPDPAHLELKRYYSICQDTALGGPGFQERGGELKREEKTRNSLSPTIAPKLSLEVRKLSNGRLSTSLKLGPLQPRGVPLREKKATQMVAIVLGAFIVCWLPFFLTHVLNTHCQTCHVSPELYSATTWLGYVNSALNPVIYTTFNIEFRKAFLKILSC
observable: pEC50
Recall that pEC50 is obtained by taking minus log10 of the concentration measured in molar.

Kindly note the recorded pEC50 for O=C1CCc2ccc(CCN3CCN(c4cc(F)cc5sccc45)CC3)cc2N1CO [Compound 1] , which is 8.15

* * *

assay: Human liver microsome assay; format: in vitro ADME; settings: pH 7.41; human liver microsomes 0.5 mg/mL, compound 1 μM, NADPH 2 mM; read-out: Intrinsic clearance (Clint, mL/min/kg)
observable: CLint scaled at 1 μM (mL/min/kg)

Record CC(C)OC(=O)OCN1C(=O)CCc2ccc(CCN3CCN(c4cc(F)cc5sccc45)CC3)cc21 . Reported CLint scaled at 1 μM: 2530

Entry CC(=O)OCN1C(=O)CCc2ccc(CCN3CCN(c4cc(F)cc5sccc45)CC3)cc21 , CLint scaled at 1 μM reported as 2000

P. CCCCC(=O)OCN1C(=O)CCc2ccc(CCN3CCN(c4cc(F)cc5sccc45)CC3)cc21
Q. CCCCCCCCCC(=O)OCN1C(=O)CCc2ccc(CCN3CCN(c4cc(F)cc5sccc45)CC3)cc21
R. CCCCCCCCCCCC(=O)OCN1C(=O)CCc2ccc(CCN3CCN(c4cc(F)cc5sccc45)CC3)cc21
Inquiry: Arrange the 3 entries by CLint scaled at 1 μM so the values rise. Return value: ordered labels per request.
Reply text: R, Q, P

* * *

Collected pIC50 values appear next to each entry.
target: hERG potassium channel (Homo sapiens, UniProt Q12809); test: hERG potassium channel block, automatic patch clamp (QPatch, CHO cells); conditions: CHO cells stably expressing hERG, highest concentration 20 μM; read-out: hERG inhibition (IC50)
Sequence (Q12809 whole entry): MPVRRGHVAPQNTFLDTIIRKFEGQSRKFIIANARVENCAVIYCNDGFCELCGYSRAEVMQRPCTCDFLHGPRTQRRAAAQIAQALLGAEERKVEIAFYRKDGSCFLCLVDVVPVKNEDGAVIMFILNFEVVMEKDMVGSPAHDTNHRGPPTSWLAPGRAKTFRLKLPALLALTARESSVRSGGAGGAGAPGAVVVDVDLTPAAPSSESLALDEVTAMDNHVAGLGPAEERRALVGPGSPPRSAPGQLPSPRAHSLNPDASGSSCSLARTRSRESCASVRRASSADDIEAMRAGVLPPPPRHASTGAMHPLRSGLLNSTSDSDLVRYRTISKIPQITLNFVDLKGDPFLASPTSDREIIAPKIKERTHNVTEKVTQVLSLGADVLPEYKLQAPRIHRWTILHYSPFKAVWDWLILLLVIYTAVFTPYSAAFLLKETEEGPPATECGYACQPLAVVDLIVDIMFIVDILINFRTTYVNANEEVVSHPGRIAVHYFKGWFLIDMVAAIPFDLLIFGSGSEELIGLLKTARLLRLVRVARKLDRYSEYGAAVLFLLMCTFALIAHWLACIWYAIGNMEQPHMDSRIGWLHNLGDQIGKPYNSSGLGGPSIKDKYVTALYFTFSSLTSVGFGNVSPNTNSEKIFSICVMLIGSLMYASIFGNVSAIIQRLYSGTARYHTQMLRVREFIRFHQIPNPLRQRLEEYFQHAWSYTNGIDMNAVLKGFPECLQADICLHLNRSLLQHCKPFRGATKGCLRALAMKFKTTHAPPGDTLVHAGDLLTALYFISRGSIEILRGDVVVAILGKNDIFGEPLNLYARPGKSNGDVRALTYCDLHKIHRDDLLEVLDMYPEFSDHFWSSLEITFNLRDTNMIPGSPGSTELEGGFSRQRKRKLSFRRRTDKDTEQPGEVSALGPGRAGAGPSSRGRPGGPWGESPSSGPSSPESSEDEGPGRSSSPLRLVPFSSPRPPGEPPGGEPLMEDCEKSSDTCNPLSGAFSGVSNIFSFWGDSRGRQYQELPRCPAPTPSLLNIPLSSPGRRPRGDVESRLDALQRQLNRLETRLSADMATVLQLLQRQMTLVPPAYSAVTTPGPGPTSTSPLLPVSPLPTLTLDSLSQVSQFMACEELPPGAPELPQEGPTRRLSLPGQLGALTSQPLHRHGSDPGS
Lab note: report pIC50 as minus log10 of the concentration in molar units, number only.

Reported pIC50 for O=C1CCc2ccc(CCN3CCN(c4cc(F)cc5sccc45)CC3)cc2N1 [Compound 1-a, reference compound] was 6.04

---
Lab note: measured pIC50 of O=C1CCc2ccc(CCN3CCN(c4cc(F)cc5sccc45)CC3)cc2N1CO [Compound 1] was 5.74

* * *

assay: Oil solubility test in benzyl benzoate (HPLC); format: physicochemical; details: organic solvent or mixture, thermodynamic from solid, 25° C., shaken 2 h
Measured solubility at 2 h, listed per entry.

// sample CCCCCCCCCCCCCCCC(=O)OCN1C(=O)CCc2ccc(CCN3CCN(c4cc(F)cc5sccc45)CC3)cc21 , its solubility at 2 h was > 200 mg/mL

Entry CC(C)OC(=O)N1C(=O)CCc2ccc(CCN3CCN(c4cc(F)cc5sccc45)CC3)cc21 ; solubility at 2 h = 25.8 mg/mL

The recorded solubility at 2 h for CCCCCCCCCCCCCCCCCCCC(=O)OCN1C(=O)CCc2ccc(CCN3CCN(c4cc(F)cc5sccc45)CC3)cc21 is > 200 mg/mL

Next:
Item: CCCCCCCCCCCCCCCC(=O)OCn1c(=O)ccc2ccc(CCN3CCN(c4cc(F)cc5sccc45)CC3)cc21 | solubility at 2 h: > 200 mg/mL

* * *

target: human recombinant 5-HT1A receptor (Homo sapiens, UniProt P08908); assay: Agonistic activity against the 5-HT1A receptor (LANCE cAMP, HEK293 cells); details: inhibition of cAMP production
Sequence (P08908 whole entry): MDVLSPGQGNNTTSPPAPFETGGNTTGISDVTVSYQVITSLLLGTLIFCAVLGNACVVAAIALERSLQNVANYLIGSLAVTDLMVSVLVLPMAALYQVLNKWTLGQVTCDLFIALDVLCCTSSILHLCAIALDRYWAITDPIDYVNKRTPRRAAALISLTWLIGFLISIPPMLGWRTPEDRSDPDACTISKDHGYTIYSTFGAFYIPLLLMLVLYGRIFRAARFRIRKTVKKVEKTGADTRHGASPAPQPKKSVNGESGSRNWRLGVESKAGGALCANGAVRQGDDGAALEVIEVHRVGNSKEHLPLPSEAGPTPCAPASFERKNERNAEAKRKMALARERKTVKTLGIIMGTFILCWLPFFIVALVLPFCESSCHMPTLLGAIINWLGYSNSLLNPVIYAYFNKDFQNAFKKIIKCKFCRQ
observable: pEC50
Value format note: pEC50 is -log10 of concentration (mol/L); just state the number.

Fill in: human recombinant 5-HT1A receptor (Homo sapiens, UniProt P08908) pEC50 for O=C1CCc2ccc(CCN3CCN(c4cc(F)cc5sccc45)CC3)cc2N1CO [Compound 1] = 9.15

* * *

The entries below come with measured IC50 values attached.
target: human recombinant 5-HT2A receptor (Homo sapiens); experiment: Antagonistic activity against the 5-HT2A receptor (IP-One-Gq, CHO cells); settings: serotonin stimulation
Give the value in nM but do not write nM after it.

// IC50 value for O=C1CCc2ccc(CCN3CCN(c4cc(F)cc5sccc45)CC3)cc2N1 [Compound 1-a, reference compound] : 33

More entries:
Form field IC50, entry O=C1CCc2ccc(CCN3CCN(c4cc(F)cc5sccc45)CC3)cc2N1CO : 32

* * *

target: human recombinant D2L receptor (Homo sapiens); assay: Antagonistic activity against the D2L receptor (LANCE Ultra cAMP, CHO cells)
Sequence (P14416 whole entry): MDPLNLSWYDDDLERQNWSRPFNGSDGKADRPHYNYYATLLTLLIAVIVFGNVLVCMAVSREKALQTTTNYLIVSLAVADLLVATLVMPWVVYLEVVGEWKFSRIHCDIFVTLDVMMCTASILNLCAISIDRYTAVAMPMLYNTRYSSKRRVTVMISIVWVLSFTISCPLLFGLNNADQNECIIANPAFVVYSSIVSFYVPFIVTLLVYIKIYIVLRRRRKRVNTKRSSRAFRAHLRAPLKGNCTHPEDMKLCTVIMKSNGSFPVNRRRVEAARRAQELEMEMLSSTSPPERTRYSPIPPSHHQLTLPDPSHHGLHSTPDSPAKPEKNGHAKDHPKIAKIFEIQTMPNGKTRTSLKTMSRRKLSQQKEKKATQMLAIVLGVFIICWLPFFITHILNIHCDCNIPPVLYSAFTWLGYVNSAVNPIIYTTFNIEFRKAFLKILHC
observable: pIC50
For clarity, pIC50 is expressed as the negative log10 of concentration in mol/L.

pIC50 for O=C1CCc2ccc(CCN3CCN(c4cc(F)cc5sccc45)CC3)cc2N1 [Compound 1-a, reference compound] is 8.36

Next molecule, pIC50 to be filled in.
Item: O=C1CCc2ccc(CCN3CCN(c4cc(F)cc5sccc45)CC3)cc2N1CO | pIC50: 8.46

* * *

biological target: human SERT (Homo sapiens, UniProt P31645)
Sequence (P31645 whole entry): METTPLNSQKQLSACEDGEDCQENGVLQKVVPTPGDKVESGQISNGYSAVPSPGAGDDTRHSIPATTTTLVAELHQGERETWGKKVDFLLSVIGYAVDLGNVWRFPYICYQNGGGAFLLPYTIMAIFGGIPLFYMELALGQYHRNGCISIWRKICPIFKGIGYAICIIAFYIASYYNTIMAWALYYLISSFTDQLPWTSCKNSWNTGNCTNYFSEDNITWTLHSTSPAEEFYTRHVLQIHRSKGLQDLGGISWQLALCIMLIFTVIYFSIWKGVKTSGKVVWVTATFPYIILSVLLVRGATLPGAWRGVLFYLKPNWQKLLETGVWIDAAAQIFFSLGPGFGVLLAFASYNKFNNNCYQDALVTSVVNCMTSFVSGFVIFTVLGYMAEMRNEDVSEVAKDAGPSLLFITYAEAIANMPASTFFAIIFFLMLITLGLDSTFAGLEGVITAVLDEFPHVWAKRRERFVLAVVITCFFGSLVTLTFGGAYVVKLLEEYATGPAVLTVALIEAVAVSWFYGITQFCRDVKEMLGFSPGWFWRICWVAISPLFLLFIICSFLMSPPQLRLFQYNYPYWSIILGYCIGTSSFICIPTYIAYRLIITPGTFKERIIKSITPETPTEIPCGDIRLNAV
observable: pIC50
Please report pIC50 as the negative decimal logarithm of the molar concentration, giving only the number.

pIC50 on human SERT (Homo sapiens, UniProt P31645) for O=C1CCc2ccc(CCN3CCN(c4cc(F)cc5sccc45)CC3)cc2N1CO is 7.89

* * *

Test: Human liver microsome assay
Assay type: in vitro ADME
Details: pH 7.41; human liver microsomes 0.5 mg/mL, compound 1 μM, NADPH 2 mM; read-out: Half-life (t1/2, min)
Method: Preparation of magnesium-potassium buffer solution: a 100 mM potassium buffer and 5 mM MgCl2 were preheated together to obtain a magnesium-potassium buffer at a pH of 7.41. Preparation of 0.5 mM working solution: a 10 mM compound stock solution was added to 95 μL of acetonitrile. […]
observable: half-life at 1 μM (min)

Illustrative cases are given below, each with its answer.
Summary for this compound, CCCCCCCCCC(=O)OCN1C(=O)CCc2ccc(CCN3CCN(c4cc(F)cc5sccc45)CC3)cc21 : half-life at 1 μM is 30

half-life at 1 μM measured on CCCCCCCCCCCC(=O)OCN1C(=O)CCc2ccc(CCN3CCN(c4cc(F)cc5sccc45)CC3)cc21 = 367

Measured half-life at 1 μM, CC(=O)OCN1C(=O)CCc2ccc(CCN3CCN(c4cc(F)cc5sccc45)CC3)cc21 : 0.87

A. CCCCC(=O)OCN1C(=O)CCc2ccc(CCN3CCN(c4cc(F)cc5sccc45)CC3)cc21
B. CC(C)OC(=O)OCN1C(=O)CCc2ccc(CCN3CCN(c4cc(F)cc5sccc45)CC3)cc21
Inquiry: Returns: the argument ( A or B ) having the larger half-life at 1 μM. Write down the label of the entry you select.
Reply text: A
(A: 1 min, B: 0.69 min)

* * *

experiment: Oil solubility test in benzyl benzoate (HPLC); format: physicochemical; settings: organic solvent or mixture, thermodynamic from solid, 25° C., shaken 2 h
observable: solubility at 2 h

Reference set, count: 3
Entry CCCCCCCCOC(=O)OCN1C(=O)CCc2ccc(CCN3CCN(c4cc(F)cc5sccc45)CC3)cc21 — recorded solubility at 2 h = > 200 mg/mL

Form field solubility at 2 h, entry CCCCCCCCCCCOC(=O)OCN1C(=O)CCc2ccc(CCN3CCN(c4cc(F)cc5sccc45)CC3)cc21 : > 200 mg/mL

What the record says about CCCCCCCCCCNC(=O)OCN1C(=O)CCc2ccc(CCN3CCN(c4cc(F)cc5sccc45)CC3)cc21 : solubility at 2 h is > 200 mg/mL

New cases:
// field: solubility at 2 h; key: CCCCC(=O)OCN1C(=O)CCc2ccc(CCN3CCN(c4cc(F)cc5sccc45)CC3)cc21 ; value = 166 mg/mL
